# target_of_assay: hERG (KCNH2) (Homo sapiens, UniProt Q12809)
# Sequence (Q12809 whole entry): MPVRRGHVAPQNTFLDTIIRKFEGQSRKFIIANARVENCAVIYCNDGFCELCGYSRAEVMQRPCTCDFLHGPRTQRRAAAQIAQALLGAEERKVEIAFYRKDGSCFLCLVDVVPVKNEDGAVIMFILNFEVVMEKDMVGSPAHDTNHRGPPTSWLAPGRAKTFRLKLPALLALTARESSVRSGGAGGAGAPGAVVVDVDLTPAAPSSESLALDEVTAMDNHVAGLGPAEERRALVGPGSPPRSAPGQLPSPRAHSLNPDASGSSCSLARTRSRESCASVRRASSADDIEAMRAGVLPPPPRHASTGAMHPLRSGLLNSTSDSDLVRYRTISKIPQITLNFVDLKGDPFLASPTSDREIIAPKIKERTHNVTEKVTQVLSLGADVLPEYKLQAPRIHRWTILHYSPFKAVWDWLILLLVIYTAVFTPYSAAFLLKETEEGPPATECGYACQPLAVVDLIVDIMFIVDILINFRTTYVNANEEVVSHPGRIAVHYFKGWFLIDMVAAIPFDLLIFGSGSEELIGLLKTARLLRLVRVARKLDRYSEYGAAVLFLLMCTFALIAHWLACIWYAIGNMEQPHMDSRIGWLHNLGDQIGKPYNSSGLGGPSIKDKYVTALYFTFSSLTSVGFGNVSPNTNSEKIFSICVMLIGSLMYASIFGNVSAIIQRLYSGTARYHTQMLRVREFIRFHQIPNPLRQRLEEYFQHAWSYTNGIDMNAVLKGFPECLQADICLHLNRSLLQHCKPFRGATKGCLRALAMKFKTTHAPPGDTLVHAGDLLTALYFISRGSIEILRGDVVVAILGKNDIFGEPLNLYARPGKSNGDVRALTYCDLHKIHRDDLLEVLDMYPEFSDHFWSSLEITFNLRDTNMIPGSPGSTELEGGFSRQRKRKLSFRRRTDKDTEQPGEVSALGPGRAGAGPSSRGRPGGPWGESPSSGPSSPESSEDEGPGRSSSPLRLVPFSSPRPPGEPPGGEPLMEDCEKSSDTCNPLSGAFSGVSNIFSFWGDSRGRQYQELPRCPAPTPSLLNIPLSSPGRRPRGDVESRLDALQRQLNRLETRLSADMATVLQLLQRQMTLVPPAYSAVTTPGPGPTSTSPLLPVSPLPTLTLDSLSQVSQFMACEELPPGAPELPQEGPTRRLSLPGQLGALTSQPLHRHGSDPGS
# assay_comment: Inhibition of human ERG at 10 uM
reported_metric: inhibition at 10 µM

# inhibition at 10 µM lookup, item CCCCCCc1c(O)ccc2c1O[C@]1(C2=O)C(Cl)=C(Cl)C(=O)N1C
< 35%

###

# target_of_assay: Cytochrome P450 3A4 (Homo sapiens)
# Sequence (P08684 whole entry): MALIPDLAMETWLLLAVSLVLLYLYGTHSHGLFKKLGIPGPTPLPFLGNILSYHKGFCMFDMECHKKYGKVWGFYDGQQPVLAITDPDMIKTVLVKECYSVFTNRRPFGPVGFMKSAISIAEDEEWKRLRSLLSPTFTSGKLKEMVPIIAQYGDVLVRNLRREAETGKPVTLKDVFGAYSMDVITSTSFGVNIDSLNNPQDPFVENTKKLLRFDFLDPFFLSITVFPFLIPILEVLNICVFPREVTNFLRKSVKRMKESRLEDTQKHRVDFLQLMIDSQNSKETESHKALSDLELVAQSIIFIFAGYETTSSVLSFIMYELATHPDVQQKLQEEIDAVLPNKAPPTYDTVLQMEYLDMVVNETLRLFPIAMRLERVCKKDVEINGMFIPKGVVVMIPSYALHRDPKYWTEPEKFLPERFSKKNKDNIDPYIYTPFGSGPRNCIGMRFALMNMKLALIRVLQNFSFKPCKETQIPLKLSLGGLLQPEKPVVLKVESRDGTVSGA
reported_metric: IC50

Any idea what IC50 was measured for CCCCCCc1c(O)ccc2c1O[C@]1(C2=O)C(Cl)=C(Cl)C(=O)N1C ?
> 10 µM

###

# assay_comment: Cmax in Swiss mouse at 7.5 mg/kg, iv
# Type: ADME, organism-based
# Set-up: dose 7.5 mg/kg, route intravenous
# recorded_conditions: in vivo
reported_metric: Cmax (ng/mL)
Report the figure in ng/mL without appending any unit label.

Quick one: Cmax for CCCCCCc1c(O)ccc2c1O[C@]1(C2=O)C(Cl)=C(Cl)C(=O)N1C ?
27400
